assay: NCI Yeast Anticancer Drug Screen. Data for the mgt1 strain (AID 153); details: S. cerevisiae mgt1 mutant growth inhibition; at 1.2 µM; active compounds read high
About 79,000 compounds went through this panel and 15% of them were active in at least one assay; those are over-represented in the sample as a whole.
ENDPOINT NAME: growth inhibition (%)
Numbers only, in %.

# batch size: 3; output growth inhibition per entry
1. CCCCCCCCCC(=O)N(CCC)CCC
2. CC1(C)CC(=O)C(C=NC(=S)C(N)=S)=C(O)C1
3. Nc1cc(Cl)ccc1Nc1ccccc1

Result:
1: -14; 2: -13; 3: -25

###

assay: NCI Yeast Anticancer Drug Screen. Data for the bub3 strain (AID 167); conditions: S. cerevisiae bub3 mutant strain, at 50.0 µM, active compounds read high
This is part of a sample that, as a whole, favours compounds with a hit. Of some 79,000 tested, about 15% had one in any assay.
ENDPOINT NAME: growth inhibition (%)
Answers are plain numbers, in %.

The molecule listed as CCC(OC(C)=O)C1CC(C(C)C)CCC1C (centres undefined) has a reported growth inhibition of 21.4

The molecule listed as CN(CCOc1ccc(Cl)cc1)CCOc1ccc(Cl)cc1 has a reported growth inhibition of 99.6

The molecule listed as O=C(NCCCCN1CC2CCCC2C1)C(C1CCCCC1)C1CCCCC1 (centres undefined) has a reported growth inhibition of 61.5

Proceeding to the next molecule to report its growth inhibition.
The molecule listed as N#CC1OB(O)c2ccccc21 (centres undefined) has a reported growth inhibition of 69.7

###

assay: NCI Yeast Anticancer Drug Screen. Data for the sgs1 mgt1 strain (AID 161);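 further: 0% = growth of cultures given vehicle only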; details: S. cerevisiae sgs1 mgt1 strain, at 5.0 µM (retest, dose inferred, filed as 0.5)
Compounds without any hit were thinned out: in the full panel of roughly 79,000, 15% have a hit. Calls of active or inactive are those of the source. Rule as the data show it: active = growth inhibition above about 70%; inactive = the rest.
Respond with a class label; see label 1 = active, label 0 = inactive

Here's what some known entries look like.
Problem: Outcome? CCCCCCNCCCNc1c2ccccc2nc2cccc([N+](=O)[O-])c12
Result: label 1

Problem: Outcome? O=C(C#Cc1ccccc1)Nc1ccccc1
Result: label 0

Problem: Outcome? CN(C)CC(CN(C)C)C(=O)/C=C/c1ccc(Cl)cc1Cl
Result: label 0

Problem: Outcome? CCCCCCCN(CCCCCCC)CC(=O)c1ccc2cc(Cl)c3ccccc3c2c1
Result: label 0

Problem: Outcome? Brc1ccc(B2Nc3ccccc3N2)cc1
Result: label 0

Problem: Outcome? O=C(O)c1c2ccc(Cl)cc2nc2[nH]c(=O)[nH]c(=O)c12
Result: label 0

Moving on to another compound below.
Problem: Outcome? CC(C)(CN1CCCCC1)C(=O)/C=C/c1c(Cl)cccc1Cl
Result: label 0

###

test: NCI Yeast Anticancer Drug Screen. Data for the rad50 strain (AID 155);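 further: 0% = growth of vehicle-only cultures of the same strain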; conditions: S. cerevisiae rad50 strain growth inhibition; at 50.0 µM (retest, dose inferred, filed as 5.0); active compounds read high
Compounds without any hit were thinned out: in the full panel of roughly 79,000, 15% have a hit.
Mark rule met for reported growth inhibition of 80% or greater; mark rule not met for anything smaller.

Here's what some known entries look like.
Problem: Check the entry OC(Cc1cccc2ccccc12)CN1CCC(c2ccccc2)CC1 (configuration not stated) : does growth inhibition equal or exceed 80%?
Result: rule not met

Problem: Check the entry Cc1cccc2c1C1c3c(C)cccc3C(CC(=O)O)CC1CC2 (configuration not stated) : does growth inhibition equal or exceed 80%?
Result: rule met

Problem: Check the entry O=C1c2ccccc2N2OC3(N4CCCC4)CCCCC3C12c1ccccc1 (configuration not stated) : does growth inhibition equal or exceed 80%?
Result: rule not met

Problem: Check the entry CC(C)Cc1ncc(CCCN=C(N)N)[nH]c1=O : does growth inhibition equal or exceed 80%?
Result: rule not met

Problem: Check the entry CCOC(=O)/C(=C/c1cccc(Cl)c1)N(CC)CC : does growth inhibition equal or exceed 80%?
Result: rule not met

Problem: Check the entry O=C1C(CCSc2ccccc2)C(=O)N(c2ccccc2)C1c1ccccc1 (configuration not stated) : does growth inhibition equal or exceed 80%?
Result: rule met

New cases:
Problem: Check the entry CS(=O)(=O)O.[Ag] : does growth inhibition equal or exceed 80%?
Result: rule met

Problem: Check the entry CC(C)N(CCCNc1c2ccccc2nc2cccc([N+](=O)[O-])c12)C(C)C : does growth inhibition equal or exceed 80%?
Result: rule met

Problem: Check the entry CC(=O)O/N=C1C=C/C(=C(/C#N)c2ccccc2)C=C/1C : does growth inhibition equal or exceed 80%?
Result: rule met

Problem: Check the entry O=C(/N=N/C(=O)Oc1ccccc1)Oc1ccccc1 : does growth inhibition equal or exceed 80%?
Result: rule met

Problem: Check the entry CCN(CC)CCNc1ccc2nc(C)n3c4ccc(OC)cc4c(=O)c1c23 : does growth inhibition equal or exceed 80%?
Result: rule met

Problem: Check the entry O=C1/C(=C/c2ccc(Cl)c(Cl)c2)CNC/C1=C\c1ccc(Cl)c(Cl)c1 : does growth inhibition equal or exceed 80%?
Result: rule not met
